tested-on: T1, LC3C (recombinant, BLI) (human, UniProt Q9BXW4 1-126)
T1 chain: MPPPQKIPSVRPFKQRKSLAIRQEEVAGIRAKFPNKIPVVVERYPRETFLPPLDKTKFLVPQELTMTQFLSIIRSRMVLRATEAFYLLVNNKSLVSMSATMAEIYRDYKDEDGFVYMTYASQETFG
assay-name: BLI
Ends that are not written are not given here.
Here, each record is paired with measured Kd data.
# unit: nM | format: bare number

Some binders with known Kd results, for comparison:
>>> endpoint_result("NISQKSDEEDFDIIEDLPLKLTIY (also: biotin, position not given here) [PCM1 FDII LIR peptide (BLI)]")
2400
>>> endpoint_result("NISQKSDEEDFVIVEDLPLKLTIY (also: biotin, position not given here) [PCM1 K1957I LIR peptide (BLI)]")
380
>>> endpoint_result("NISQKSDEEDFVKIEDLPLKLTIY (also: biotin, position not given here) [PCM1 V1958I LIR peptide]")
6900

Pending binder:
[ask] Which Kd reading was recorded for the binder TDYRPPDDAVFDIITDEELCQIQE (24-mer limits inferred: 10 residues on each side of the core FDII (1280-1283), as in the arrays; exact peptide is in Supplementary Table 2. N- or C-terminal biotin if used in BLI, cellulose-bound if in the array) [FYCO1 WT LIR peptide] ?
[reply] 3000

Reference source for all entries: paper PMC6499816
